Biological target: Matrix metalloproteinase-14 (Homo sapiens)
Experiment: Inhibition of human recombinant MMP14 after 60 mins by fluorimetry
Kindly supply the reported pIC50 values for the records listed here.
Keep in mind that pIC50 stands for -log10 of concentration in molar terms.

[ask] Tell me its pIC50 given CCOC(=O)c1cc2cc(-c3cncn3C)ccc2[nH]1 as the entry.
[reply] 4.82

[ask] Tell me its pIC50 given CCOC(=O)c1cc2cc(-c3ccncc3)ccc2[nH]1 as the entry.
[reply] 3.65

[ask] Tell me its pIC50 given CCOC(=O)c1cc2cc(-c3cc(C(=O)NCc4ccc(=O)[nH]c4)nn3C)ccc2[nH]1 as the entry.
[reply] 4.96

[ask] Tell me its pIC50 given CCOC(=O)c1cc2cc(-c3cc(C(=O)OC)nn3C)ccc2[nH]1 as the entry.
[reply] 4.39
